Reference for the values: patent US5719287A

target: HIV-1 protease (Human immunodeficiency virus type 1 group M subtype B, UniProt P04585)
Construct: Purified HIV-1 protease was obtained as described below; made in house; host or cells: E. coli K12 L507/pHP10D (NRRL B-18560)
test protocol: biochemical
details: read-out: Fluorescence Assay IC50 (converted)
measured parameter: log10(IC50) (log10 of the value in nM)

compound: CC(C)(C)NC(=O)c1ccccc1C[C@@H](O)[C@H](Cc1ccccc1)NC(=O)[C@H](CC(N)=O)NC(=O)Cc1ccc2ccccc2c1 [Example 31]
log10(IC50): 1.06

compound: CC(C)(C)NC(=O)c1ccccc1C[C@@H](O)[C@H](Cc1ccccc1)NC(=O)[C@H](CC(N)=O)NC(=O)c1cc2ccccc2[nH]1 [Example 21]
log10(IC50): 0.62

compound: Cc1cccc2ccc(C(=O)N[C@@H](CC(N)=O)C(=O)N[C@@H](Cc3ccccc3)[C@H](O)Cc3ccccc3C(=O)NC(C)(C)C)nc12 [Example 24]
log10(IC50): -0.32

compound: CC(C)(C)NC(=O)c1ccccc1C[C@@H](O)[C@H](Cc1ccccc1)NC(=O)[C@H](Cc1cnc[nH]1)NC(=O)c1ccc2ccccc2n1 [Example 17]
log10(IC50): 0.28

compound: CCC(C)(C)NC(=O)c1ccccc1C[C@@H](O)[C@H](Cc1ccccc1)NC(=O)[C@H](CC(N)=O)NC(=O)c1ccc2ccccc2n1 [Example 8]
log10(IC50): 0.68

compound: CC1(NC(=O)c2ccccc2C[C@@H](O)[C@H](Cc2ccccc2)NC(=O)[C@H](CC(N)=O)NC(=O)c2ccc3ccccc3n2)CCCC1 [Example 69]
log10(IC50): 0.08
